Taken from patent US9963448B2.

target or system: UniProt:Q9UM07
Sequence (Q9UM07 whole entry): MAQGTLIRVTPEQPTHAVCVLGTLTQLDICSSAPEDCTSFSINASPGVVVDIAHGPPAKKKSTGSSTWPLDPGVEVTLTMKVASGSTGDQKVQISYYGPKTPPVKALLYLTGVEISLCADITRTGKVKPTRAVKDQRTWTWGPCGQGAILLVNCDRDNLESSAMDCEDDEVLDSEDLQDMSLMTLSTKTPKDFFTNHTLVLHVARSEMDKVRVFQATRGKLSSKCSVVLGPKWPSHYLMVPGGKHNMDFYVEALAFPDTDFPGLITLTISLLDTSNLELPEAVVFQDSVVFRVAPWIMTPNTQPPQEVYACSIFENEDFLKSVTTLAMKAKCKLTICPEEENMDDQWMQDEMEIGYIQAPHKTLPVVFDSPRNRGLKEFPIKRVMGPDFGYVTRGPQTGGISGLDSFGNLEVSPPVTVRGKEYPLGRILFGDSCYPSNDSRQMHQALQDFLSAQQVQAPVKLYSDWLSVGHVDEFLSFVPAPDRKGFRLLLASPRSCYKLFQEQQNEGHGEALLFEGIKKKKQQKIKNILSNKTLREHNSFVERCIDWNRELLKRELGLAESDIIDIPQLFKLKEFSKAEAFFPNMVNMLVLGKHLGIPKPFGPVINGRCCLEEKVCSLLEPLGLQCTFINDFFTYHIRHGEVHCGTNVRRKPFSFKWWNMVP
assay: hPAD4 RFMS (RapidFire mass spectrometry) PAD4 inhibition assay;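 note: grade E means pIC50 at most 4 and F means pIC50 4.0 to 5.0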
Format: biochemical
run parameters: hPAD4 enzyme, RFMS readout; pIC50=−log(IC50); read-out: hPAD4 RFMS pIC50 (converted)
assay endpoint: IC50

• COc1cc(C(=O)N2CCC[C@@H](N)C2)cc2nc(-c3cc4cccnc4n3CC3CC(C)(O)C3)n(C)c12 (some centres unmarked) = 1 to 10 µM
• COc1cc(C(=O)N2C[C@H]3CCC2[C@H]3N)cc2nc(-c3cc4cc(/C=C/CCc5ccccc5)ccc4n3CC3CC3)n(C)c12 = < 1 µM
• CCn1c(-c2nc3cc(C(=O)N4CC[C@@H]5CCN[C@@H]5C4)cc(OC)c3n2C)cc2cccnc21 (single isomer, unassigned) = 1 to 10 µM
• CCn1c(-c2nc3cc(C(=O)N4CCC5CCNC5C4)cc(OC)c3n2C)cc2cccnc21 (centres unmarked) = 1 to 10 µM
• CCOc1cc(C(=O)N2CC(N)CCC2C)cc2nc(-c3cc4cccnc4n3CC3CC3)n(C)c12 (centres unmarked) = 1 to 10 µM
• COc1cc(C(=O)N2C[C@@H](N)CC[C@@H]2C)cc2nc(-c3cc4cccnc4n3CC3CC3)n(C)c12 = 10 to 100 µM
• COc1cc(C(=O)N2C[C@H]3CC[C@@H]2[C@@H]3N)cc2nc(-c3cc4cccnc4n3CC3CC3)n(CCSC)c12 = < 1 µM
• COc1cc(C(=O)N2C[C@H]3CC[C@@H]2[C@@H]3N)cc2nc(-c3cc4cccnc4n3CC3CC3)n(CC3CCOC3)c12 (some centres unmarked) = < 1 µM
• Cn1c(-c2cc3cccnc3n2CC2CC2)nc2cc(C(=O)N3C[C@H](N)C[C@@H](F)C3)cc(OC(F)F)c21 = < 1 µM
• Cn1c(-c2cc3cccnc3n2CC2CC2)nc2cc(C(=O)N3CC(N)CC(F)(F)C3)ccc21 (centres unmarked) = 10 to 100 µM
• COc1cc(C(=O)N2C[C@H]3COC[C@@]3(CN)C2)cc2nc(-c3cc4cccnc4n3CC3CC3)n(C)c12 = 10 to 100 µM
